Entries annotated with measured pIC50
molecular target: PARP1 (Homo sapiens, UniProt P09874); construct: HeLa cells (wide-type with PARP1 gene) were purchased from ATCC; test: In-Cell Western measurement of PARylation in PARP1 WT and knockout cells; settings: HeLa cells (wide-type with PARP1 gene); hydrogen peroxide-induced PARylation; compounds 30 min, then 10 mM hydrogen peroxide 15 min; read-out: HeLa_WT_IC50
Sequence (P09874 whole entry): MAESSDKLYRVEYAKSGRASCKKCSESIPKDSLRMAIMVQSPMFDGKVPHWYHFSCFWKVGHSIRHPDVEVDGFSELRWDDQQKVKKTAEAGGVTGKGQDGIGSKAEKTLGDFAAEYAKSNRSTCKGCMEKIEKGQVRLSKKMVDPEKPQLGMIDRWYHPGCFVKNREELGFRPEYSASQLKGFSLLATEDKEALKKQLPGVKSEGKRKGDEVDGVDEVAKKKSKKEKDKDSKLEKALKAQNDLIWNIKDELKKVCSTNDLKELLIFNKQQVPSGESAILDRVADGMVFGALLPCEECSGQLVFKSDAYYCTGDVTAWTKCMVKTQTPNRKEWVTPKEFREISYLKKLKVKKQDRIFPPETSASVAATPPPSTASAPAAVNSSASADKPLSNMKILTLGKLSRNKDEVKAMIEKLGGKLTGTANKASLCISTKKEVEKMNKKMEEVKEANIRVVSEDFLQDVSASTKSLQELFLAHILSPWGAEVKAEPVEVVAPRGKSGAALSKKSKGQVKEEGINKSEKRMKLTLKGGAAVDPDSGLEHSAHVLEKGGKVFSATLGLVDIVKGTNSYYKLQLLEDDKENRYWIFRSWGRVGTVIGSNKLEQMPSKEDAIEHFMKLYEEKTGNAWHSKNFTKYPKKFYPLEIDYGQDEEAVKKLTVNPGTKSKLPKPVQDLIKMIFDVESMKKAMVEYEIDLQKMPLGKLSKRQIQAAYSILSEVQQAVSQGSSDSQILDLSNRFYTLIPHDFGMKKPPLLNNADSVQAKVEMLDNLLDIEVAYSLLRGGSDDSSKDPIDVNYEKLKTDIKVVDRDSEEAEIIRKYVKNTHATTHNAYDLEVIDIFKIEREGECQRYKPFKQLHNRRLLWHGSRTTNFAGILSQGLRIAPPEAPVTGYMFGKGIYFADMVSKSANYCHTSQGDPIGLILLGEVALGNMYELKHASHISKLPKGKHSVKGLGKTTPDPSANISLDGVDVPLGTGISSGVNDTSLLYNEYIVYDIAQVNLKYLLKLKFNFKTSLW
pIC50: −log10 of the molar value.

compound | readout-label | meas-value
CCn1c(=O)[nH]c2c(F)c(CN3CCN(c4ccc(C(=O)NC)nc4C)CC3)ccc2c1=O | pIC50 | ≥ 8.00
CNC(=O)c1ccc(N2CCN(Cc3ccc4c(c3)[nH]c(=O)c3c4ccn3C)CC2)cn1 | pIC50 | ≥ 8.00
CCN1C(=O)Nc2cc(CN3CCN(c4ccc(C(=O)NC)nc4)CC3)cc3ncnc1c23 | pIC50 | ≥ 8.00

# compound `CCN1C(=O)Nc2cc(CN3CCN(c4ccc(C(=O)NC)nc4F)CC3)cc3ncnc1c23` ; its pIC50 = ≥ 8.00

# compound `CNC(=O)c1ccc(N2CCN(Cc3cnc4c5c(c(=O)[nH]c4c3)CCC5)CC2)cn1` ; its pIC50 = ≥ 8.00

# compound `CCn1c(=O)[nH]c2cc(CN3CCN(c4ccc(C(=O)NC)nc4C)CC3)ccc2c1=O` ; its pIC50 = ≥ 8.00

# compound `CCN1C(=O)Nc2c(F)c(CN3CCN(c4ccc(C(=O)NC5(CC#N)CC5)c(F)c4F)CC3)cc3ncnc1c23` ; its pIC50 = 7.00 to 8.00

# compound `CCN1C(=O)Nc2c(F)c(CN3CCN(c4ccc(C(=O)NC)nc4C)CC3)cc3c2c1nc(=O)n3C` ; its pIC50 = 7.00 to 8.00

# compound `CCN1C(=O)Nc2c(F)c(CN3CCN(c4ccc(C(=O)NC5CC5)nc4C)CC3)cc3ncnc1c23` ; its pIC50 = ≥ 8.00

###

biological target: PARP1 (Homo sapiens, UniProt P09874); construct: HeLa cells (wide-type with PARP1 gene) were purchased from ATCC; test: In-Cell Western measurement of PARylation in PARP1 WT and knockout cells; details: HeLa cells (wide-type with PARP1 gene); hydrogen peroxide-induced PARylation; compounds 30 min, then 10 mM hydrogen peroxide 15 min; read-out: HeLa_WT_IC50
Entries annotated with measured IC50

compound | IC50
CCN1C(=O)Nc2c(F)c(CN3CCN(c4ccc(C(=O)NC5CN(C)C5)nc4C)CC3)cc3ncnc1c23 [Compound I-71] | ≤ 10 nM
CCn1c(=O)[nH]c2c(F)c(CN3CCN(c4ccc(C(=O)NC)nc4C)CC3)cc(CO)c2c1=O [Compound I-41] | ≤ 10 nM

# compound CNC(=O)c1ccc(N2CCN(Cc3cc4[nH]c(=O)c5c(c4cn3)CCC5)CC2)c(C)n1 [Compound I-30] ; its IC50 = ≤ 10 nM

###

molecular target: PARP1 (Homo sapiens); construct: HeLa cells (wide-type with PARP1 gene) were purchased from ATCC; test: In-Cell Western measurement of PARylation in PARP1 WT and knockout cells; details: HeLa cells (wide-type with PARP1 gene); hydrogen peroxide-induced PARylation; compounds 30 min, then 10 mM hydrogen peroxide 15 min; read-out: HeLa_WT_IC50
readout-label: IC50

Reference set, count: 2
compound | IC50
CCN1C(=O)Nc2c(F)c(CN3CCN(c4ccc(C(=O)NC5(CC#N)CC5)nc4C)CC3)cc3ncnc1c23 | ≤ 0.01 µM
CCn1c(=O)[nH]c2cc(CN3CCN(c4ccc(C(=O)NC)nc4)CC3)cnc2c1=O | 0.1 to 0.5 µM

# compound `CCN1C(=O)Nc2c(F)c(CN3CCN(c4ccc(C(=O)NC)nc4C)CC3)cc3c2c1nn3C` ; its IC50 = ≤ 0.01 µM

# compound `CCN1C(=O)Nc2c(F)c(CN3CCN(c4ccc(C(=O)NC5CC5)c(F)c4F)CC3)cc3ncnc1c23` ; its IC50 = ≤ 0.01 µM

# compound `CNC(=O)c1ccc(N2CCN(Cc3cnc4c5c(c(=O)[nH]c4c3)CCC5)CC2)c(C(F)(F)F)n1` ; its IC50 = ≤ 0.01 µM

# compound `CNC(=O)c1ccc(N2CCN(Cc3ncc4c5c(c(=O)[nH]c4c3F)CCC5)CC2)cn1` ; its IC50 = ≤ 0.01 µM

# compound CNC(=O)c1ccc(N2CCN(Cc3ccc4c(c3)NC(=O)C3CC43)CC2)cn1 (stereo not drawn) ; its IC50 = 0.1 to 0.5 µM

# compound `[2H]C([2H])([2H])NC(=O)c1ccc(N2CCN(Cc3ccc4c(=O)n(CC)c(=O)[nH]c4c3)CC2)c(C([2H])([2H])[2H])n1` ; its IC50 = ≤ 0.01 µM

# compound `CNC(=O)c1ccc(N2CCN(Cc3ncc4c5c(c(=O)[nH]c4c3F)CCC5)CC2)c(C(F)(F)F)n1` ; its IC50 = ≤ 0.01 µM

# compound `CCN1C(=O)Nc2cc(CN3CCN(c4ccc(C(=O)NC)nc4C)CC3)cc3cnnc1c23` ; its IC50 = ≤ 0.01 µM

# compound `CCN1C(=O)Nc2c(F)c(CN3CCN(c4ccc(C(=O)NC5(CC#N)CC5)cc4F)CC3)cc3ncnc1c23` ; its IC50 = ≤ 0.01 µM

# compound `CNC(=O)c1ccc(N2CCN(Cc3cnc4c5c(c(=O)[nH]c4c3)CCC5)CC2)c(C)n1` ; its IC50 = ≤ 0.01 µM
